# EXPERIMENTAL SYSTEM: Neuronal acetylcholine receptor; alpha4/beta2 (Homo sapiens, UniProt P17787+P43681)
# EXPERIMENT NOTES: Agonist activity at alpha4beta2 nAChR (unknown origin) expressed in HEK293 cells assessed as increase of ERK1/2 phosphorylation at 10 uM after 5 mins by Western blotting
# Assay type: cell-based
The source made the active and inactive calls. The calls are words filed in the database; no cut-off is given here.
Labels: true (1) = active, false (0) = inactive

| MOLECULE | EXPERIMENTAL SYSTEM | ASSIGNED LABEL |
| --- | --- | --- |
| CN1CCC[C@H]1c1ccc[n+](CCCCCNCC2CCc3ccc(O)cc3O2)c1 (mixture of isomers) | Neuronal acetylcholine receptor; alpha4/beta2 (Homo sapiens, UniProt P17787+P43681) | false (0) |
| CN1CCC[C@H]1c1ccc[n+](CCCCCCCCCCCCNCC2CCc3ccc(O)cc3O2)c1 (mixture of isomers) | Neuronal acetylcholine receptor; alpha4/beta2 (Homo sapiens, UniProt P17787+P43681) | false (0) |
| CN1CCC[C@H]1c1ccc[n+](CCCCCCNCC2CCc3ccc(O)cc3O2)c1 (mixture of isomers) | Neuronal acetylcholine receptor; alpha4/beta2 (Homo sapiens, UniProt P17787+P43681) | false (0) |
| CN1CCC[C@H]1c1ccc[n+](CCCCCCCCCCNCC2CCc3ccc(O)cc3O2)c1 (mixture of isomers) | Neuronal acetylcholine receptor; alpha4/beta2 (Homo sapiens, UniProt P17787+P43681) | false (0) |
| CN1CCC[C@H]1c1cccnc1 | Neuronal acetylcholine receptor; alpha4/beta2 (Homo sapiens, UniProt P17787+P43681) | true (1) |
